Here we list molecules with their recorded IC50 when tested on PIK3CD (Human).
Give just the number in nM; leave the unit off.

Here are 5 molecules together with their reported answers.
>  <Chemical Smiles>
Cc1nc(C(=O)Nc2cc(-c3cccc4[nH]ncc34)cc3[nH]ncc23)cs1

>  <Quantity Unit>
nM

>  <Number>
316

$$$$
>  <Chemical Smiles>
CC(C)N1CCN(Cc2nnc(-c3cc(-c4cccc5[nH]ccc45)cc4[nH]ncc34)o2)CC1

>  <Quantity Unit>
nM

>  <Number>
1.26

$$$$
>  <Chemical Smiles>
C[C@@H]1CN(Cc2nc(C(=O)Nc3cc(-c4cccc5[nH]ccc45)cc4[nH]ncc34)cs2)C[C@H](C)O1

>  <Quantity Unit>
nM

>  <Number>
2

$$$$
>  <Chemical Smiles>
COc1ncc(-c2cc(NC(=O)c3csc(C)n3)c3cn[nH]c3c2)cc1NS(C)(=O)=O

>  <Quantity Unit>
nM

>  <Number>
12.6

$$$$
>  <Chemical Smiles>
CN(C(=O)c1ccccn1)c1cc(-c2cccc3[nH]ccc23)cc2[nH]ncc12

>  <Quantity Unit>
nM

>  <Number>
15800

$$$$

(Q) What does the data say about its IC50? Entry: Cc1cnc(-c2cc(-c3cccc4[nH]ccc34)cc3[nH]ncc23)o1
(A) 63.1

(Q) Find the recorded IC50 belonging to Cc1csc(-c2cc(-c3cccc4[nH]ccc34)cc3[nH]ncc23)n1 and report it.
(A) 398

(Q) Need IC50, item C[C@@H]1CN(Cc2coc(-c3cc(-c4cccc5[nH]ccc45)cc4[nH]ncc34)n2)C[C@H](C)O1
(A) 5.01

(Q) Name the recorded IC50 for O=C(Nc1cc(-c2cccc3[nH]ccc23)cc2[nH]ncc12)c1cscn1 .
(A) 158

(Q) Give the measured IC50 of c1cc(-c2cc(-c3ncco3)c3cn[nH]c3c2)c2cc[nH]c2c1 .
(A) 79.4

(Q) I am curious: what IC50 value has been reported for Cc1nc(C(=O)Nc2cc(-c3cccc4[nH]ccc34)cc3[nH]ncc23)cs1 ?
(A) 50.1

(Q) So what does the record say about IC50 for Cc1nc(C(=O)Nc2cc(-c3cnc(C)c(NS(C)(=O)=O)c3)cc3[nH]ncc23)cs1 ?
(A) 31.6

(Q) Sample Cc1ccc(C(=O)Nc2cc(-c3cccc4[nH]ccc34)cc3[nH]ncc23)nc1 — what was its IC50?
(A) 126

(Q) If you can, please state the reported IC50 value of C[C@@H]1CN(Cc2nnc(-c3cc(-c4cccc5[nH]ccc45)cc4[nH]ncc34)o2)C[C@H](C)O1 .
(A) 3.16

(Q) Request the reported IC50 associated with Cc1cc2c(-c3cc(NC(=O)c4csc(C)n4)c4cn[nH]c4c3)cccc2[nH]1
(A) 20

(Q) Endpoint output: IC50 of O=C(Nc1cc(-c2cccc3[nH]ccc23)cc2[nH]ncc12)c1csc(CN2CCN3CCC[C@H]3C2)n1 . Value?
(A) 3.98
